tested_target: TLR4/MD-2/CD14 (Homo sapiens, UniProt O00206+Q9Y6Y9)
Construct: host or cells: HEK293 (HEK Blue hTLR4)
Sequence (O00206 24-839): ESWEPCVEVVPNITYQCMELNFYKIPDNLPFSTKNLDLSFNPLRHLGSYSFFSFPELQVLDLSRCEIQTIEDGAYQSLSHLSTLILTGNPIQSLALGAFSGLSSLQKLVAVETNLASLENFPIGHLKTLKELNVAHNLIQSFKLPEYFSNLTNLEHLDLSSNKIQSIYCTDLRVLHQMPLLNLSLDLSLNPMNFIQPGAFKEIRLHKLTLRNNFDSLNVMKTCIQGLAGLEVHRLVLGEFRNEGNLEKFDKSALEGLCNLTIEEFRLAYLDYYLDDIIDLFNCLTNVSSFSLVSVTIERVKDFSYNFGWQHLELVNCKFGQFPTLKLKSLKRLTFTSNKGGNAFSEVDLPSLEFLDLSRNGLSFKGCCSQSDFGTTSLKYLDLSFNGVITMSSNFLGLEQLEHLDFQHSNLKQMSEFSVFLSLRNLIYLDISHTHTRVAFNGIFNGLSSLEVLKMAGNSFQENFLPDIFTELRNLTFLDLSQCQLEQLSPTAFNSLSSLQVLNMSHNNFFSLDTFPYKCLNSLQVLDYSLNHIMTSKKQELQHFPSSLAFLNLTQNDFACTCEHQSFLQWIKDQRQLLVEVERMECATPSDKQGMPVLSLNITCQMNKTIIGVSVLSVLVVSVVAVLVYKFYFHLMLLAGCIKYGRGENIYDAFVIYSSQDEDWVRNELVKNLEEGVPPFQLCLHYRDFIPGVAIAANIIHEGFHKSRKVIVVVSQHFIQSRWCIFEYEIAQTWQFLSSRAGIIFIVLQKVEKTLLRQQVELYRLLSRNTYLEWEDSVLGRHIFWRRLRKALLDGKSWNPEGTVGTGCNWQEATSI
Sequence (Q9Y6Y9 19-160): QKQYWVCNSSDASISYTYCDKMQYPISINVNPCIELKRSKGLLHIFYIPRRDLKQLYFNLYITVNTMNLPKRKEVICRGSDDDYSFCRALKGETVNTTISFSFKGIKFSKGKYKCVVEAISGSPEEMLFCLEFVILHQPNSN
experiment_notes: hTLR4 HEK Blue reporter cells, NF-κB SEAP secretion (QuantiBlue OD630)
Format: cell-based
assay_setup: TLR4 reporter cells and hPBMC
measure_name: Activity relative to compound 1a (SAR in words)

* CCOC(=O)c1nc(Nc2cc(Oc3ccccc3Br)cc([N+](=O)[O-])c2)c2ccccc2n1 | enhanced
* CCOC(=O)c1nc(Nc2cc(Oc3ccccc3C)cc([N+](=O)[O-])c2)c2ccccc2n1 | enhanced
* CCOC(=O)c1nc(Nc2cc(Oc3ccccc3Cl)cc([N+](=O)[O-])c2)c2ccccc2n1 | enhanced
* CCOC(=O)c1nc(Nc2cc(Oc3ccccc3I)cc([N+](=O)[O-])c2)c2ccccc2n1 | enhanced

Where these numbers come from: patent US20150132342A1
